# target-under-test: UniProt P03372
# Sequence (P03372 311-547 limits assumed): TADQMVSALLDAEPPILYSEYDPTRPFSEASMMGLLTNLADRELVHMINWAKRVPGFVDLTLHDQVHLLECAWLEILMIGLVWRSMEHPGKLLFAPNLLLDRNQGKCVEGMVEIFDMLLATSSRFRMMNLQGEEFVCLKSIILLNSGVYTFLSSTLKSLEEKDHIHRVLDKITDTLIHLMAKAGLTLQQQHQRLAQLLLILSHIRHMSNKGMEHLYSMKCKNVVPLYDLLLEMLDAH
# procedure-details: ERα luciferase reporter gene experiment
# condition-details: HEK293 transfected with pBIND-ERα
For each record, write down the corresponding EC50.

[Q] Under UniProt P03372: EC50 value of `C[C@]12C=CC(=O)C=C1CC[C@@H]1[C@@H]2[C@@H](O)C[C@@]2(C)[C@H]1C[C@H]1O[C@@H](c3ccc(Cc4cccc(CO)c4)cc3)O[C@]12C(=O)CO` ?
[A] > 1000 nM

[Q] Under UniProt P03372: EC50 value of `C[C@]12C=CC(=O)C=C1CC[C@@H]1[C@@H]2[C@@H](O)C[C@@]2(C)[C@H]1C[C@H]1O[C@@H](c3ccc(Cc4ccc(CO)cc4)cc3)O[C@]12C(=O)CO` ?
[A] > 1000 nM

---

For each record, write down the corresponding EC50.
# target-under-test: UniProt:P08235
# Sequence (P08235 whole entry): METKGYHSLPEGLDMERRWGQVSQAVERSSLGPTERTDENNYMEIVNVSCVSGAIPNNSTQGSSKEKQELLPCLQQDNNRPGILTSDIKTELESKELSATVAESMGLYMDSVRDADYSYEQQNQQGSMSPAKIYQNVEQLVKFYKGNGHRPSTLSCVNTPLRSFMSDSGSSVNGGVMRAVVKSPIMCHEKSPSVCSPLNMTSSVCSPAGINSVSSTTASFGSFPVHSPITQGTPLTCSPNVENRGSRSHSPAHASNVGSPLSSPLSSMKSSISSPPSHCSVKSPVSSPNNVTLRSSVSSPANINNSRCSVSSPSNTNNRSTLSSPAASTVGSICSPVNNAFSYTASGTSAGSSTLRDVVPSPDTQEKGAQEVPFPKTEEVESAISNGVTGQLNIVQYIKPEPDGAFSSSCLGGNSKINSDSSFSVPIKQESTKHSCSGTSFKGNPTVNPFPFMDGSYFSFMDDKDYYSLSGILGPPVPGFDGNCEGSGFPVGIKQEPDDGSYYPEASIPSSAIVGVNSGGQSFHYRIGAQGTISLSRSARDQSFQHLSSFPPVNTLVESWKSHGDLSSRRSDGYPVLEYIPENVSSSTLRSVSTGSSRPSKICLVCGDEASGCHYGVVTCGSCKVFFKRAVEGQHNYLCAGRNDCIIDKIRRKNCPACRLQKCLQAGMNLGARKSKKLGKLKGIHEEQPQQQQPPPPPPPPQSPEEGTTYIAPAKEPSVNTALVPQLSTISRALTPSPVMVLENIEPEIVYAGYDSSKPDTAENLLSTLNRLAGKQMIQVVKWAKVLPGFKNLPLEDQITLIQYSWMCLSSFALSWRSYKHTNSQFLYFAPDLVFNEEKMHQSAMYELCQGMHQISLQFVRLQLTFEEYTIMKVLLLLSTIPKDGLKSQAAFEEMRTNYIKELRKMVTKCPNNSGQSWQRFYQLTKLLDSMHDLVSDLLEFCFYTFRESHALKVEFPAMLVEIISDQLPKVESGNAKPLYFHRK
# procedure-details: MR luciferase reporter gene experiment
# condition-details: HEK293 transfected with pBIND-MR

[Q] State the recorded EC50 for this entry: `C[C@]12C=CC(=O)C=C1CC[C@@H]1[C@@H]2[C@@H](O)C[C@@]2(C)[C@H]1C[C@H]1O[C@@H](c3ccc(Cc4cccc(CO)c4)cc3)O[C@]12C(=O)CO`
[A] > 1 µM

[Q] State the recorded EC50 for this entry: `C[C@]12C=CC(=O)C=C1CC[C@@H]1[C@@H]2[C@@H](O)C[C@@]2(C)[C@H]1C[C@H]1O[C@@H](c3ccc(Cc4ccc(CO)cc4)cc3)O[C@]12C(=O)CO`
[A] > 1 µM
